# assayed target: T1, Biotin-huCGRPaSA (human, not fully specified; biotin (position not given))
# T1 construct: exact construct ('aSA') not explained; also called Biotin CGRPaSA; full-length (1-37) CGRP
# T1 peptide: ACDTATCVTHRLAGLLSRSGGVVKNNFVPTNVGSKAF
# protocol details: ELISA, supernatant; relative to chimeric C245
We use 80% as the dividing line for Relative binding activity, %: on or above the line is Met, below is Not met.

>  <binder>
hu139 (antibody, V domains shown, 2B8 HC1-3/2B8 LC2-1) VH: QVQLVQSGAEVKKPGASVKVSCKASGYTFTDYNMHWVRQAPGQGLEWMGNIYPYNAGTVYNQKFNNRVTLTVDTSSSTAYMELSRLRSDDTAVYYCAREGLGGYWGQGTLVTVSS VL: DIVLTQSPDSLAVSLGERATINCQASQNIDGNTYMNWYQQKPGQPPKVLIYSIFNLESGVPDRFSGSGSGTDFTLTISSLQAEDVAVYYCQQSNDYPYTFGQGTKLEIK

>  <class assignment>
Met

$$$$
>  <binder>
hu120 (antibody, V domains shown, 2B8 HC1-2/1A2 LC2-3) VH: QVQLVQSGAEVKKPGASVKVSCKASGYTFTDYNMHWVRQAPGQGLEWMGNIYPYNGGTVYNQKFNNRVTLTVDTSSSTAYMELRSLRSDDTAVYYCAREGLGGYWGQGTLVTVSS VL: EIVLTQSPATLSLSPGERATLSCKASQNIDYDGYAYLNWYQQKPGQAPRVLIYSVFNLESGIPARFSGSGSGTDFTLTISSLEPEDFAVYYCQQSNEFPYTFGQGTKLEIK

>  <class assignment>
Not met

$$$$
>  <binder>
hu42 (antibody, V domains shown, 1F5 HC-2/1A2 LC2-3) VH: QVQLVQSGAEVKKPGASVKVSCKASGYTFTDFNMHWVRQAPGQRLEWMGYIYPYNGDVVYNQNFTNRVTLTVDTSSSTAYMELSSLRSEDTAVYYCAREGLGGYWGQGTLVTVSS VL: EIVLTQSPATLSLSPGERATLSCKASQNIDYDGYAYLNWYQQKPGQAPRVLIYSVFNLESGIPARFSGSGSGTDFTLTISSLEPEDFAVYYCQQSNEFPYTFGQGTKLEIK

>  <class assignment>
Not met

$$$$
>  <binder>
hu141 (antibody, V domains shown, 2B8 HC1-3/3E5 LC-1) VH: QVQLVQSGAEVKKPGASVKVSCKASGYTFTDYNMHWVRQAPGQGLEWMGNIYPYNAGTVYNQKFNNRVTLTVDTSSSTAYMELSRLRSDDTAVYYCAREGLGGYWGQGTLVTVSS VL: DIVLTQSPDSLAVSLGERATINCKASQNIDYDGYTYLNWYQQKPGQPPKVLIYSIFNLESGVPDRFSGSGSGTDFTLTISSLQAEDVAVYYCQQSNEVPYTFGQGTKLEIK

>  <class assignment>
Met

$$$$
>  <binder>
hu186 (antibody, V domains shown, 3E5 HC-4/1A2 LC2-4) VH: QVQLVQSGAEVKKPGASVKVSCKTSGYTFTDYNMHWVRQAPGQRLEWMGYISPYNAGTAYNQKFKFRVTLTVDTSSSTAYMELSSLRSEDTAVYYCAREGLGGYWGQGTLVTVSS VL: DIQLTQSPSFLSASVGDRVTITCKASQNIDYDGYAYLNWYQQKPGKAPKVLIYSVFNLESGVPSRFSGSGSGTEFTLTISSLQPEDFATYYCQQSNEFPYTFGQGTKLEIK

>  <class assignment>
Not met

$$$$
>  <binder>
hu170 (antibody, V domains shown, 3E5 HC-3/1A2 LC2-1) VH: QVQLVQSGAEVKKPGASVKVSCKASGYTFTDYNMHWVRQAPGQGLEWMGYISPYNGGTAYNQKFKFRVTLTVDTSSSTAYMELSRLRSDDTVVYYCAREGLGGYWGQGTLVTVSS VL: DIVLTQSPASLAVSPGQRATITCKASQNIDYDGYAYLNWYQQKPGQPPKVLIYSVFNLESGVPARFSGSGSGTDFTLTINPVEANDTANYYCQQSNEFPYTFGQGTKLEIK

>  <class assignment>
Not met

$$$$
>  <binder>
hu145 (antibody, V domains shown, 3E5 HC-1/1A2 LC2-2) VH: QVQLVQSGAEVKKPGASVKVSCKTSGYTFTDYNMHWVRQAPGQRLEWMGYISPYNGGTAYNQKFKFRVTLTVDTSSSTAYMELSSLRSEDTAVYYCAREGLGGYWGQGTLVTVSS VL: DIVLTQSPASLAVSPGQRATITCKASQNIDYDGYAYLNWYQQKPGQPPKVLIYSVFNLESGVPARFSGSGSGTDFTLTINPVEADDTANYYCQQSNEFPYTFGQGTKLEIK

>  <class assignment>
Met

$$$$
